Tested on: HCT-116 cells
Method: Annexin V-FITC/PI apoptosis/necrosis assessment, HCT-116
Type: cell-based, human
Condition details: 10 μM, 48 h, versus control
Result type: increase of apoptotic cell population (folds)
Give the value in folds but do not write folds after it.

Could you tell me which increase of apoptotic cell population is on file for Cc1cc(O)cc(-c2nc(Nc3cc(C(F)(F)F)cc(C(F)(F)F)c3)ncc2-c2ccnc(-c3ccc(C#N)cc3)c2)c1 [Compound 10f] ?
15.2

---

Study system: purified Src kinase (Homo sapiens)
Method: biochemical
Condition details: read-out: Src kinase inhibition
Think of 50% as a floor: if inhibition at 10 µM stands on it or above, it is 1; beneath it, 0.

Examples with answers:
COc1cc(C)cc(-c2nc(Nc3cc(C(F)(F)F)cc(C(F)(F)F)c3)ncc2-c2ccnc(-c3ccc(Oc4ccccc4)cc3)c2)c1 = 1
COc1cc(C)cc(-c2nc(Nc3cc(C(F)(F)F)cc(C(F)(F)F)c3)ncc2-c2ccnc(Cl)c2)c1 = 0
COc1cc(C)cc(-c2nc(Nc3cc(C(F)(F)F)cc(C(F)(F)F)c3)ncc2-c2ccnc(-c3ccccc3)c2)c1 = 1
COc1cc(C)cc(-c2nc(Nc3cc(C(F)(F)F)cc(C(F)(F)F)c3)ncc2-c2ccnc(-c3ccc(N(C)C)cc3)c2)c1 = 0

Please turn your attention to the following entry.
Please tell me: is the compound `COc1cc(C)cc(-c2nc(Nc3cc(C(F)(F)F)cc(C(F)(F)F)c3)ncc2-c2ccnc(-c3cccnc3)c2)c1` at or over 50% in terms of inhibition at 10 µM?
1

---

Study system: purified Src kinase (Homo sapiens, UniProt P12931)
Sequence (P12931 whole entry, looked up): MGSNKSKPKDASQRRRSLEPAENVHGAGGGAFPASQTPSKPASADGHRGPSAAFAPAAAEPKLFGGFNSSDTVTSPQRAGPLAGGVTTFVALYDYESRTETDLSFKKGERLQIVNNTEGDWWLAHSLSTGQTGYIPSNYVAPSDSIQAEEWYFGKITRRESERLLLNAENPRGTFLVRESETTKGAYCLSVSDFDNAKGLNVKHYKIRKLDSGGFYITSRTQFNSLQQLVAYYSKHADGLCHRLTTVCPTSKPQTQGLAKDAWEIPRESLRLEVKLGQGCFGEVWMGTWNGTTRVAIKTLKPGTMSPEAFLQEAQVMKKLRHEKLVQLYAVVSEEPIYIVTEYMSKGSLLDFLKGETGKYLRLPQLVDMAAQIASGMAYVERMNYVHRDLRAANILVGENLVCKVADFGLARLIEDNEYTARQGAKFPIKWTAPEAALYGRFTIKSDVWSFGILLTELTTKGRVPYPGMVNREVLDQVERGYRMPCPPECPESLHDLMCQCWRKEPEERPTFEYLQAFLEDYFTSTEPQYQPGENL
Method: biochemical
Result type: Src kinase inhibitory activity in words (dose-response)

Cc1cc(O)cc(-c2nc(Nc3cc(C(F)(F)F)cc(C(F)(F)F)c3)ncc2-c2ccnc(-c3ccccc3)c2)c1 [Compound 10a] = completely inactive
Cc1cc(O)cc(-c2nc(Nc3cc(C(F)(F)F)cc(C(F)(F)F)c3)ncc2-c2ccnc(-c3ccc(C#N)cc3)c2)c1 [Compound 10f] = completely inactive
Cc1cc(O)cc(-c2nc(Nc3cc(C(F)(F)F)cc(C(F)(F)F)c3)ncc2-c2ccnc(-c3cccnc3)c2)c1 [Compound 10b] = completely inactive

---

System: HCT-116 cells
Method: Annexin V-FITC/PI apoptosis/necrosis assessment, HCT-116
Assay type: cell-based, human
Condition details: 10 μM, 48 h, versus control
Measured increase of apoptotic cell population by item
Give the value in folds but do not write folds after it.

Could you tell me which increase of apoptotic cell population is on file for Cc1cc(O)cc(-c2nc(Nc3cc(C(F)(F)F)cc(C(F)(F)F)c3)ncc2-c2ccnc(-c3ccccc3)c2)c1 [Compound 10a] ?
7.5

Could you tell me which increase of apoptotic cell population is on file for Cc1cc(O)cc(-c2nc(Nc3cc(C(F)(F)F)cc(C(F)(F)F)c3)ncc2-c2ccnc(-c3cccnc3)c2)c1 [Compound 10b] ?
4.7

Could you tell me which increase of apoptotic cell population is on file for `COc1cc(C)cc(-c2nc(Nc3cc(C(F)(F)F)cc(C(F)(F)F)c3)ncc2-c2ccnc(-c3cccnc3)c2)c1` ?
3.8
